System: 885724-159-R-J1-PDC complex spheroid viability
Test: Anticancer human tumor 885724-159-R-J1-PDC patient-derived pancreatic adenocarcinoma cell line growth inhibition [GQUAD]
Settings: second compound 10 µM; first compound 0.1 µM; stronger effect = lower value
From the text: DNA G-quadruplex Stabilizer Agents in Combinations in Complex Spheroids A high-throughput screen of multi-cell type tumor spheroids was designed to identify active combinations of DNA G-quadruplex stabilizer agents and targeted small molecules. […] Compounds. […] If the clinical Cmax for an agent had not been determined, the highest concentration tested was 10 microM. […]
Quick list: viability, T/C per entry.
experimentalEndpoint: viability, T/C (%)

[[record]]
molecule = "CC1COCCN1c1cc(-c2ccnn2C)c2ccnc(-c3ccn[nH]3)c2n1 (stereo not drawn) + Cc1[nH]c2ccc(F)cc2c1-c1nc2c3cccnc3c3ncccc3c2[nH]1"
unitannotation = "%"
numericvalue = 66

[[record]]
molecule = "CC(C)n1c(=O)n(C)c2cnc3cc(F)c(-c4ccc(OCCCN5CCCCC5)nc4)cc3c21 + Cc1cnc(CNC(=O)c2c(=O)c3ccc(N4CCCN(C)CC4)nc3n3c2sc2ccccc23)cn1"
unitannotation = "%"
numericvalue = 71.1

[[record]]
molecule = "C=CCn1c(=O)c2cnc(Nc3ccc(N4CCN(C)CC4)cc3)nc2n1-c1cccc(C(C)(C)O)n1 + CN(C)c1ccc(Nc2c3ccc(NC(=O)CCN4CCCC4)cc3nc3cc(NC(=O)CCN4CCCC4)ccc23)cc1"
unitannotation = "%"
numericvalue = 69.5


---

Tested on: 885724-159-R-J1-PDC complex spheroid viability
Experiment: Anticancer human tumor 885724-159-R-J1-PDC cell line growth inhibition [GQUAD];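 further: spheroids exposed to agents for seven days before readout; percent of vehicle control viability where 100% = DMSO wells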
Conditions: second compound 0.0316 µM; first compound 0.1 µM; stronger effect = lower value
experimentalEndpoint: viability, T/C

[[record]]
compound = "COc1cccc2c1C(=O)c1c(O)c3c(c(O)c1C2=O)CC(O)(C(=O)CO)CC3OC1CC(N)C(O)C(C)O1 (stereo unspecified) + CN(C)c1ccc(Nc2c3ccc(NC(=O)CCN4CCCC4)cc3nc3cc(NC(=O)CCN4CCCC4)ccc23)cc1"
experimentalendpoint = "viability, T/C"
result = "96.3%"

[[record]]
compound = "COc1ccc([C@@H](O)c2cc(-c3ncnc4cc(N5CCOCC5)ccc34)c(F)cc2Cl)nn1 + Cc1[nH]c2ccc(F)cc2c1-c1nc2c3cccnc3c3ncccc3c2[nH]1"
experimentalendpoint = "viability, T/C"
result = "110%"

[[record]]
compound = "CC1COCCN1c1cc(-c2ccnn2C)c2ccnc(-c3ccn[nH]3)c2n1 (stereo unspecified) + Cc1[nH]c2ccc(F)cc2c1-c1nc2c3cccnc3c3ncccc3c2[nH]1"
experimentalendpoint = "viability, T/C"
result = "87.3%"

[[record]]
compound = "CCCS(=O)(=O)Nc1ccc(F)c(C(=O)c2c[nH]c3ncc(-c4ccc(Cl)cc4)cc23)c1F + Cc1cnc(CNC(=O)c2c(=O)c3ccc(N4CCCN(C)CC4)nc3n3c2sc2ccccc23)cn1"
experimentalendpoint = "viability, T/C"
result = "106%"

[[record]]
compound = "CC1COCCN1c1cc(C2(O)CC3CCC(C2)O3)c2cnn(-c3ccn[nH]3)c2n1 (stereo unspecified) + Cc1[nH]c2ccc(F)cc2c1-c1nc2c3cccnc3c3ncccc3c2[nH]1"
experimentalendpoint = "viability, T/C"
result = "77.5%"

[[record]]
compound = "COc1ccc([C@@H](O)c2cc(-c3ncnc4cc(N5CCOCC5)ccc34)c(F)cc2Cl)nn1 + Cc1cnc(CNC(=O)c2c(=O)c3ccc(N4CCCN(C)CC4)nc3n3c2sc2ccccc23)cn1"
experimentalendpoint = "viability, T/C"
result = "112%"

[[record]]
compound = "O=C(c1cc(Cc2n[nH]c(=O)c3ccccc23)ccc1F)N1CCN(C(=O)C2CC2)CC1 + Cc1[nH]c2ccc(F)cc2c1-c1nc2c3cccnc3c3ncccc3c2[nH]1"
experimentalendpoint = "viability, T/C"
result = "94.3%"

[[record]]
compound = "CC1COCCN1c1cc(-c2ccnn2C)c2ccnc(-c3ccn[nH]3)c2n1 (stereo unspecified) + CN(C)c1ccc(Nc2c3ccc(NC(=O)CCN4CCCC4)cc3nc3cc(NC(=O)CCN4CCCC4)ccc23)cc1"
experimentalendpoint = "viability, T/C"
result = "85.6%"

[[record]]
compound = "CC(C)n1c(=O)n(C)c2cnc3cc(F)c(-c4ccc(OCCCN5CCCCC5)nc4)cc3c21 + CN(C)c1ccc(Nc2c3ccc(NC(=O)CCN4CCCC4)cc3nc3cc(NC(=O)CCN4CCCC4)ccc23)cc1"
experimentalendpoint = "viability, T/C"
result = "111%"

[[record]]
compound = "CC(C)n1c(=O)n(C)c2cnc3cc(F)c(-c4ccc(OCCCN5CCCCC5)nc4)cc3c21 + Cc1[nH]c2ccc(F)cc2c1-c1nc2c3cccnc3c3ncccc3c2[nH]1"
experimentalendpoint = "viability, T/C"
result = "95.2%"

[[record]]
compound = "COc1cc(C2c3cc4c(cc3C(OC3OC5COC(C)OC5C(O)C3O)C3COC(=O)C23)OCO4)cc(OC)c1O (stereo unspecified) + CN(C)c1ccc(Nc2c3ccc(NC(=O)CCN4CCCC4)cc3nc3cc(NC(=O)CCN4CCCC4)ccc23)cc1"
experimentalendpoint = "viability, T/C"
result = "90.8%"


---

Tested on: 885724-159-R-J1-PDC complex spheroid viability
Assay: Anticancer human tumor 885724-159-R-J1-PDC cell line growth inhibition [GQUAD];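 further: spheroids exposed to agents for seven days before readout; percent of vehicle control viability where 100% = DMSO wells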
Conditions: second compound 1 µM; first compound 0.00316 µM; stronger effect = lower value
experimentalEndpoint: viability, T/C (%)

[[record]]
compound = "Cc1[nH]c2ccccc2c1CCNCc1ccc(/C=C/C(=O)NO)cc1 + Cc1[nH]c2ccc(F)cc2c1-c1nc2c3cccnc3c3ncccc3c2[nH]1"
numericvalue = 60.8

[[record]]
compound = "CCc1c2c(nc3ccc(O)cc13)-c1cc3c(c(=O)n1C2)COC(=O)[C@]3(O)CC + CN(C)c1ccc(Nc2c3ccc(NC(=O)CCN4CCCC4)cc3nc3cc(NC(=O)CCN4CCCC4)ccc23)cc1"
numericvalue = 65

[[record]]
compound = "CCc1c2c(nc3ccc(O)cc13)-c1cc3c(c(=O)n1C2)COC(=O)[C@]3(O)CC + Cc1[nH]c2ccc(F)cc2c1-c1nc2c3cccnc3c3ncccc3c2[nH]1"
numericvalue = 61.1

[[record]]
compound = "Cc1[nH]c2ccccc2c1CCNCc1ccc(/C=C/C(=O)NO)cc1 + CN(C)c1ccc(Nc2c3ccc(NC(=O)CCN4CCCC4)cc3nc3cc(NC(=O)CCN4CCCC4)ccc23)cc1"
numericvalue = 75.6

[[record]]
compound = "CC[C@@]1(O)C(=O)OCc2c1cc1n(c2=O)Cc2cc3c(CN(C)C)c(O)ccc3nc2-1 + CN(C)c1ccc(Nc2c3ccc(NC(=O)CCN4CCCC4)cc3nc3cc(NC(=O)CCN4CCCC4)ccc23)cc1"
numericvalue = 82.3


---

Test system: 885724-159-R-J1-PDC complex spheroid viability
Experiment: Anticancer human tumor 885724-159-R-J1-PDC cell line growth inhibition [GQUAD];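 further: spheroids exposed to agents for seven days before readout; percent of vehicle control viability where 100% = DMSO wells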
Settings: second compound 0.1 µM; first compound 0.316 µM; stronger effect = lower value
experimentalEndpoint: viability, T/C (%)

[[record]]
molecule = "O=C(c1cc(Cc2n[nH]c(=O)c3ccccc23)ccc1F)N1CCN(C(=O)C2CC2)CC1 + CN(C)c1ccc(Nc2c3ccc(NC(=O)CCN4CCCC4)cc3nc3cc(NC(=O)CCN4CCCC4)ccc23)cc1"
testtarget = "885724-159-R-J1-PDC complex spheroid viability"
experimentalendpoint = "viability, T/C"
numericvalue = 103

[[record]]
molecule = "COc1cccc2c1C(=O)c1c(O)c3c(c(O)c1C2=O)CC(O)(C(=O)CO)CC3OC1CC(N)C(O)C(C)O1 (stereo not given) + Cc1cnc(CNC(=O)c2c(=O)c3ccc(N4CCCN(C)CC4)nc3n3c2sc2ccccc23)cn1"
testtarget = "885724-159-R-J1-PDC complex spheroid viability"
experimentalendpoint = "viability, T/C"
numericvalue = 99

[[record]]
molecule = "CCc1c2c(nc3ccc(O)cc13)-c1cc3c(c(=O)n1C2)COC(=O)[C@]3(O)CC + Cc1[nH]c2ccc(F)cc2c1-c1nc2c3cccnc3c3ncccc3c2[nH]1"
testtarget = "885724-159-R-J1-PDC complex spheroid viability"
experimentalendpoint = "viability, T/C"
numericvalue = 21.3

[[record]]
molecule = "CC(C)(O)C1CCC(Nc2ccc3ncc(-c4cccc(C(F)(F)F)c4)n3n2)CC1 (stereo not given) + Cc1cnc(CNC(=O)c2c(=O)c3ccc(N4CCCN(C)CC4)nc3n3c2sc2ccccc23)cn1"
testtarget = "885724-159-R-J1-PDC complex spheroid viability"
experimentalendpoint = "viability, T/C"
numericvalue = 91.2

[[record]]
molecule = "CCCS(=O)(=O)Nc1ccc(F)c(C(=O)c2c[nH]c3ncc(-c4ccc(Cl)cc4)cc23)c1F + Cc1cnc(CNC(=O)c2c(=O)c3ccc(N4CCCN(C)CC4)nc3n3c2sc2ccccc23)cn1"
testtarget = "885724-159-R-J1-PDC complex spheroid viability"
experimentalendpoint = "viability, T/C"
numericvalue = 116

